testDetails: Tanguay_ZF_120hpf_EYE_legacy: (Legacy) Oregon State University Tanguay Lab 120 Hour Post-fertilization zebrafish Assay for Eye Malformation (AID 2283636);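 note: binary presence or absence of eye malformation scored by brightfield in 120 hpf larvae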
Records with an inconclusive call do not appear. Active and inactive are the calls of the source. Rule for the calls: active = hit-call score of the fitted dose curve at least 0.9, where 1 is the maximum; inconclusive = response in the unintended direction; inactive = score below 0.9.
measuredParameter: outcome

# count of solved cases: 5
{"compound": "CCCCCCCCCCCCOS(=O)(=O)O", "measuredParameter": "outcome", "val": "inactive"}
{"compound": "CCC(C)c1ccccc1O (configuration not stated)", "measuredParameter": "outcome", "val": "inactive"}
{"compound": "CC(=O)Nc1ccc(O)cc1", "measuredParameter": "outcome", "val": "inactive"}
{"compound": "N=C(N)c1ccc(OCCCCCOc2ccc(C(=N)N)cc2)cc1", "measuredParameter": "outcome", "val": "inactive"}
{"compound": "OCC(CO)(CBr)CBr", "measuredParameter": "outcome", "val": "inactive"}

Which measured outcome value corresponds to CCCCc1oc2ccccc2c1C(=O)c1cc(I)c(OCCN(CC)CC)c(I)c1 ?
inactive

Same question, O=C1NS(=O)(=O)c2ccccc21 this time
inactive
